Quick list: IC50 per entry.
Test system: 435261-313-R-J1-PDC complex spheroid viability;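 also: spheroids exposed to the agents for seven days before readout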
Experiment: Anticancer human tumor 435261-313-R-J1-PDC patient-derived colon adenocarcinoma cell line growth inhibition [GQUAD]
Conditions: curve of first compound; second compound 0.0316 µM
Text: DNA G-quadruplex Stabilizer Agents in Combinations in Complex Spheroids A high-throughput screen of multi-cell type tumor spheroids was designed to identify active combinations of DNA G-quadruplex stabilizer agents and targeted small molecules. […] Compounds. […] If the clinical Cmax for an agent had not been determined, the highest concentration tested was 10 microM. […]
Form entry: value (µM) — number only.

Here is how some molecules turned out for IC50.
[[record]]
molecule = "CC(C)n1c(=O)n(C)c2cnc3cc(F)c(-c4ccc(OCCCN5CCCCC5)nc4)cc3c21 + Cc1cnc(CNC(=O)c2c(=O)c3ccc(N4CCCN(C)CC4)nc3n3c2sc2ccccc23)cn1"
observed_value = 3.96

[[record]]
molecule = "CCCS(=O)(=O)Nc1ccc(F)c(C(=O)c2c[nH]c3ncc(-c4ccc(Cl)cc4)cc23)c1F + Cc1[nH]c2ccc(F)cc2c1-c1nc2c3cccnc3c3ncccc3c2[nH]1"
observed_value = 5.2


Here is the next item to consider.
Reported IC50 for CCc1c2c(nc3ccc(O)cc13)-c1cc3c(c(=O)n1C2)COC(=O)[C@]3(O)CC + Cc1[nH]c2ccc(F)cc2c1-c1nc2c3cccnc3c3ncccc3c2[nH]1 : what is it? 0.0212
